Values were extracted from patent US7811688B2.

Assay: Odorant vapor pressure and odorant-hydrogen phase equilibrium (Raoult's Law)
Conditions: @ 6000 psi, 25° C.
Items are presented alongside their recorded Saturated Odorant Concentration yA.
Report the figure in ppm without appending any unit label.

[
  {
    "Compound": "C[Se]C [dimethyl selenide]",
    "Saturated Odorant Concentration yA (ppm)": 773
  }
]

Note: attention shifts to another entry.
Which Saturated Odorant Concentration yA value is on record for CCS [ethyl mercaptan] ?
1705

----------
Consider the following molecules and their measured ‘B’ Saturated Odorant Loading [6000 psi H2] readings.
Assay: Odorant vapor pressure and odorant-hydrogen phase equilibrium (Raoult's Law)
Details: PA^sat/P × 10^6 at 6000 psi
Give a bare numeral; the unit ppm is implied.

Examples with answers:
[
  {
    "Molecule": "CCO [ethanol]",
    "Test Value": 190
  },
  {
    "Molecule": "CCCN [propylamine, propyl amine]",
    "Test Value": 999
  },
  {
    "Molecule": "CN [methylamine, methyl amine]",
    "Test Value": 8543
  }
]

# get_value(readout='‘B’ Saturated Odorant Loading [6000 psi H2]', item= CCCl [ethylchloride] )
3256

Name the reported ‘B’ Saturated Odorant Loading [6000 psi H2] value associated with the molecule CC[SeH] [ethyl selenol]
833

Fill in: ‘B’ Saturated Odorant Loading [6000 psi H2] of CCS [ethyl mercaptan] is ___
1705
